# Test system: genotype 1a (H77) wild-type transient HCV replicon in Huh-7-derived cells
# assay protocol: Transient-transfected HCV replicon, genotype 1a wild type
# Type: cell-based
# condition: Hepatitis C virus; transient-transfected replicon genotype 1a wild type, 72 h; read-out: EC50 1A WT
The entries below are paired with their reported EC50.
Write the answer as a number in nM, unit excluded.

>  <structure notation>
COc1ccc2nc3c(nc2c1)O[C@@H]1C[C@@H](C(=O)N[C@]2(C(=O)NS(=O)(=O)C4CC4)C[C@H]2C(F)F)N(C1)C(=O)[C@H](C(C)(C)C)NC(=O)O[C@@H]1[C@H]2CC[C@H](C2)[C@H]1CCCCC3

>  <measured value>
2.6

$$$$

Bench note: what EC50 did CC(C)(C)[C@@H]1NC(=O)O[C@@H]2C[C@@H]3C[C@@H]3[C@H]2CCCCC(F)(F)c2nc3ccccc3nc2O[C@@H]2C[C@@H](C(=O)N[C@]3(C(=O)NS(=O)(=O)C4CC4)C[C@H]3C(F)F)N(C2)C1=O show? 3.6

* * *

# system tested: NS3 genotype 1b protease (Hepatitis C virus genotype 1b, UniProt Q9WMX2, E1202G)
# Construct: Purified NS3 protease domain (amino acids 1-181) of the genotype 1b and 3a virus were generated as above; K3 hexahistidine tag (N); rTEV protease cleavage site (N)
# Sequence (Q9WMX2 1027-1207 E1202G, other chains not shown): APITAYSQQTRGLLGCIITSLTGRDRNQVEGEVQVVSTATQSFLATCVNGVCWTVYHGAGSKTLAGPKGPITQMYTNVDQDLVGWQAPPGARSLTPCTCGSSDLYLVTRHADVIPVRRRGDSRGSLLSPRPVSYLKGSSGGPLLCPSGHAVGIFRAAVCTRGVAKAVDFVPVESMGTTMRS
# assay protocol: Ki determination, NS3 protease genotype 1b (fluorogenic depsipeptide substrate)
# condition: NS3 protease domain genotype 1b, NS4A peptide
endpoint: Ki

Example entries and their recorded answers appear below.
>  <compound>
COc1ccc2nc3c(nc2c1)O[C@@H]1C[C@@H](C(=O)N[C@]2(C(=O)NS(=O)(=O)C4(C)CC4)C[C@H]2C(F)F)N(C1)C(=O)[C@H](C(C)(C)C)NC(=O)O[C@@H]1C[C@@H]2C[C@@H]2[C@H]1CCCCC3

>  <Ki>
0.02 nM

$$$$
>  <compound>
CC(C)(C)[C@@H]1NC(=O)O[C@@H]2C[C@@H]3C[C@@H]3[C@H]2CCCCC(F)(F)c2nc3ccc(C#N)cc3nc2O[C@@H]2C[C@@H](C(=O)N[C@]3(C(=O)NS(=O)(=O)C4(C)CC4)C[C@H]3C(F)F)N(C2)C1=O

>  <Ki>
0.01 nM

$$$$

In the following, a different compound is considered.
Look up Ki: COc1ccc2nc3c(nc2c1)O[C@@H]1C[C@@H](C(=O)N[C@]2(C(=O)NS(=O)(=O)C4CC4)C[C@H]2C(F)F)N(C1)C(=O)[C@H](C(C)(C)C)NC(=O)O[C@@H]1C[C@@H]2C[C@@H]2[C@H]1CCCCC3(F)F (racemic) 0.02 nM

* * *

# system tested: NS3 genotype 1b protease (Hepatitis C virus genotype 1b, UniProt Q9WMX2, E1202G)
# Construct: Purified NS3 protease domain (amino acids 1-181) of the genotype 1b and 3a virus were generated as above; K3 hexahistidine tag (N); rTEV protease cleavage site (N); made in house; host or cells: E. coli BL21AI
# assay protocol: Ki determination, NS3 protease genotype 1b (fluorogenic depsipeptide substrate)
# Type: biochemical
# condition: NS3 protease domain genotype 1b, NS4A peptide
endpoint: Ki (pM)
Only the number, expressed in pM, is required.

>  <structure notation>
COc1ccc2cc3c(nc2c1)O[C@@H]1C[C@@H](C(=O)N[C@]2(C(=O)NS(=O)(=O)C4CC4)C[C@H]2C(F)F)N(C1)C(=O)[C@H](C(C)(C)C)NC(=O)O[C@@H]1C[C@@H]2C[C@@H]2[C@H]1CCCCC3

>  <reading unit>
pM

>  <Ki>
20

$$$$

Item CC(C)(C)[C@@H]1NC(=O)O[C@@H]2C[C@@H]3C[C@@H]3[C@H]2CCCCCc2nc3ccc(Cl)cc3nc2O[C@@H]2C[C@@H](C(=O)N[C@]3(C(=O)NS(=O)(=O)C4CC4)C[C@H]3C(F)F)N(C2)C1=O has what recorded Ki? 20
